system: Klebsiella aerogenes DSM 30053; assay: fold change of Putrescine concentration vs plate DMSO controls (fold change (ratio)); higher = more amine produced, active = hit call of the paper (significant change in both replicates, either direction); conditions: incubation time: 27 h, anaerobic, 37 °C
Where a name gives a salt, the structure may show the parent alone.

COMPOUND	fold change of Putrescine concentration
CC#CCn1c(N2CCC[C@@H](N)C2)nc2c1c(=O)n(Cc1nc(C)c3ccccc3n1)c(=O)n2C [Linagliptin] (20 µM)	1.02
CC(=O)CC(c1ccccc1)c1c(O)c2ccccc2oc1=O (stereo not drawn) [Warfarin] (20 µM)	0.989
Cc1ncc([N+](=O)[O-])n1CCO [Metronidazole] (20 µM)	1.05
CC(C)NCC(O)COc1cccc2[nH]c3ccccc3c12 (stereo not drawn) [Carazolol] (20 µM)	0.966
CC(C)NC(=N)NC(=N)Nc1ccc(Cl)cc1 [Proguanil hydrochloride] (20 µM)	0.997
CCC1NC(=O)c2cc(S(N)(=O)=O)c(Cl)cc2N1 (stereo not drawn) [Quinethazone] (20 µM)	0.92
CCCCC(CC)CNC(=N)NC(=N)NCCCCCCNC(=N)NC(=N)NCC(CC)CCCC (stereo not drawn) [Alexidine dihydrochloride] (20 µM)	1.02
CN(Cc1cc(Br)cc(Br)c1N)C1CCCCC1 [Bromhexine hydrochloride] (20 µM)	1.03
CCCCCNC(=N)N/N=C/c1c[nH]c2ccc(OC)cc12 [Tegaserod maleate] (20 µM)	0.997
Nc1cc(C(Cl)=C(Cl)Cl)c(S(N)(=O)=O)cc1S(N)(=O)=O [Clorsulon] (20 µM)	1.03
Clc1ccc(CO/N=C(\Cn2ccnc2)c2ccc(Cl)cc2Cl)c(Cl)c1 [Oxiconazole nitrate] (20 µM)	1.05
OC[C@H](O)C(O)[C@@H](O)CO [L-Arabinitol] (50 µM)	1.02
Clc1cccc(Cl)c1NC1=NCCN1 [Clonidine hydrochloride] (20 µM)	1.01
Cc1cc(/C=C/c2ccc3cc(N(C)C)ccc3[n+]2C)c(C)n1-c1ccccc1 [Pyrvinium pamoate] (20 µM)	1.01
CC1Cc2ccccc2N1NC(=O)c1ccc(Cl)c(S(N)(=O)=O)c1 (stereo not drawn) [Indapamide] (20 µM)	1
Nc1ccn([C@@H]2O[C@H](CO)[C@@H](O)C2(F)F)c(=O)n1 [Gemcitabine] (20 µM)	1.01
COc1ccc2cc(CCC(C)=O)ccc2c1 [Nabumetone] (20 µM)	0.974
CN[C@@H]1[C@@H](O[C@H]2O[C@H](CO)[C@@H](N)[C@H](O)[C@H]2O)OC2C[C@@H](N)[C@@H](O[C@H]3[C@H](O)[C@@H](O)[C@H](N)C[C@@H]3N)OC2[C@@H]1O (stereo partly drawn) [Apramycin] (20 µM)	1.05
CC(C)(O)c1ccccc1CC[C@@H](SCC1(CC(=O)O)CC1)c1cccc(/C=C/c2ccc3ccc(Cl)cc3n2)c1 [Montelukast] (20 µM)	1.05
CCCCOc1cc(C(=O)NCCN(CC)CC)c2ccccc2n1 [Dibucaine] (20 µM)	0.955
CCOc1ccc(NC(=O)CC(C)O)cc1 (stereo not drawn) [Bucetin] (20 µM)	1.01
CC(=O)CCCCn1c(=O)c2c(ncn2C)n(C)c1=O [Pentoxifylline] (20 µM)	1.02
CN(C)CCC=C1c2ccccc2CCc2ccccc21 [Amitryptiline hydrochloride] (20 µM)	0.936

----------
test system: Escherichia coli IAI1; assay: fold change of Cadaverine concentration vs plate DMSO controls (fold change (ratio)); higher = more amine produced, active = hit call of the paper (significant change in both replicates, either direction); settings: incubation time: 27 h, anaerobic, 37 °C
Structures can show the parent of a compound that is named as a salt.
Quick reference for fold change of Cadaverine concentration among some compounds
RECORDED METRIC: fold change of Cadaverine concentration

COMPOUND	OBSERVED RESULT
CC(C)Cc1ccc(C(C)C(=O)OCc2ccccn2)cc1 (centres undefined) [Ibuprofen Piconol] (20 µM)	0.983 (inactive)
CC(=O)OCC(=O)[C@@]1(O)CC[C@H]2[C@@H]3CCC4=CC(=O)C=C[C@]4(C)[C@@]3(F)[C@@H](O)C[C@@]21C [Isoflupredone acetate] (20 µM)	0.988 (inactive)
CCCCCCCN(CC)CCCC(O)c1ccc(NS(C)(=O)=O)cc1 (centres undefined) [Ibutilide fumarate] (20 µM)	1.02 (inactive)
CC(=O)N(CC(C)C(=O)O)c1c(I)cc(I)c(N)c1I (centres undefined) [Iocetamic acid] (20 µM)	0.988 (inactive)

----------
system: Escherichia coli IAI1; experiment: fold change of Cadaverine concentration vs plate DMSO controls (fold change (ratio)); higher = more amine produced, active = hit call of the paper (significant change in both replicates, either direction); conditions: incubation time: 27 h, anaerobic, 37 °C;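 for the amine columns active = adjusted P below 0.05 in both replicates with a change the same way and a mean fold change under 0.8 or over 1.25; inactive = the rest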
Where a name gives a salt, the structure may show the parent alone.
Outcomes: t (active), f (inactive)

COMPOUND	MEASUREMENT TARGET	QUALITATIVE LABEL
CCCCC(=O)N(Cc1ccc(-c2ccccc2-c2nnn[nH]2)cc1)[C@H](C(=O)O)C(C)C [Valsartan] (20 µM)	Escherichia coli IAI1	f
CC(NN)c1ccccc1 (stereo not drawn) [Mebanazine] (20 µM)	Escherichia coli IAI1	f
CC(C(=O)O)c1ccc2c(c1)Cc1cccnc1O2 (stereo not drawn) [Pranoprofen] (20 µM)	Escherichia coli IAI1	f
COc1ccc2cc(CCC(C)=O)ccc2c1 [Nabumetone] (20 µM)	Escherichia coli IAI1	f
CCN(CC)C(C)CN1c2ccccc2Sc2ccccc21 (stereo not drawn) [Ethopropazine hydrochloride] (20 µM)	Escherichia coli IAI1	f
CCC1(C)CC(=O)NC1=O (stereo not drawn) [Ethosuximide] (20 µM)	Escherichia coli IAI1	f
C[C@@H](O)[C@H]1C(=O)N2C(C(=O)O)=C(SCCNC=N)C[C@H]12 [Imipenem] (20 µM)	Escherichia coli IAI1	t
CC(C)NCC(O)c1cc(O)cc(O)c1 (stereo not drawn) [Metaproterenol sulfate] (20 µM)	Escherichia coli IAI1	f
Cc1ccc(Cl)c(Nc2ccccc2C(=O)O)c1Cl [Meclofenamic acid sodium salt monohydrate] (20 µM)	Escherichia coli IAI1	f
CC(CCc1ccc(O)cc1)NCCc1ccc(O)c(O)c1 (stereo not drawn) [Dobutamine hydrochloride] (20 µM)	Escherichia coli IAI1	f
Clc1ccc(Cn2c(CN3CCCC3)nc3ccccc32)cc1 [Clemizole hydrochloride] (20 µM)	Escherichia coli IAI1	t
NS(=O)(=O)c1cc2c(cc1Cl)N=C(CSCc1ccccc1)NS2(=O)=O [Benzthiazide] (20 µM)	Escherichia coli IAI1	f
O=c1[nH]c(=O)n([C@H]2C[C@H](O)[C@@H](CO)O2)cc1F [Floxuridine] (20 µM)	Escherichia coli IAI1	f
C/C=C(/C(=C/C)c1ccc(O)cc1)c1ccc(O)cc1 [Dienestrol] (20 µM)	Escherichia coli IAI1	f
CC(C)(CO)[C@@H](O)C(=O)NCCCC(=O)O [Hopantenate calcium] (20 µM)	Escherichia coli IAI1	f
O=C(O)CCC(=O)c1ccc(-c2ccccc2)cc1 [Fenbufen] (20 µM)	Escherichia coli IAI1	f
CNC[C@H](O)[C@@H](O)[C@H](O)[C@H](O)CO [Meglumine] (20 µM)	Escherichia coli IAI1	f
CCCN[C@H]1CCc2nc(N)sc2C1 [Pramipexole dihydrochloride] (20 µM)	Escherichia coli IAI1	f
OCC1(O)OC[C@@H](O)[C@@H](O)[C@H]1O (stereo partly drawn) [Psicose] (50 µM)	Escherichia coli IAI1	f
CN1CCOC(c2ccccc2)c2ccccc2C1 (stereo not drawn) [Nefopam hydrochloride] (20 µM)	Escherichia coli IAI1	f
CCCCOCCOCCOCc1cc2c(cc1CCC)OCO2 (20 µM)	Escherichia coli IAI1	f
CO[C@@H]1[C@@H](O[C@@H]2O[C@H](C)[C@@H](O[C@H]3C[C@@](C)(O)[C@@H](O)[C@H](C)O3)[C@H](N(C)C)[C@H]2O)[C@@H](CC=O)C[C@@H](C)[C@@H](O[C@H]2CC[C@H](N(C)C)[C@@H](C)O2)/C=C/C=C/C[C@@H](C)OC(=O)C[C@H]1OC(C)=O [Acetyl spiramycin] (20 µM)	Escherichia coli IAI1	f
COc1cc(Cc2cnc(N)nc2N)cc(OC)c1OC [Trimethoprim] (20 µM)	Escherichia coli IAI1	t

----------
tested on: Clostridium sporogenes DSM 1664; experiment: growth (OD595) fold change vs plate DMSO controls (fold change (ratio)); higher = more growth; settings: incubation time: 27 h, anaerobic, 37 °C
Structures can show the parent of a compound that is named as a salt.
RECORDED METRIC: growth

COMPOUND	MEASUREMENT TARGET	OBSERVED RESULT
CC(C)(Oc1ccc(CCNC(=O)c2ccc(Cl)cc2)cc1)C(=O)O [Bezafibrate] (20 µM)	Clostridium sporogenes DSM 1664	1.06
CCN(CC)CCOC(=O)C1(C2CCCCC2)CCCCC1 [Dicyclomine hydrochloride] (20 µM)	Clostridium sporogenes DSM 1664	0.883
CC(C)c1nc(N(C)S(C)(=O)=O)nc(-c2ccc(F)cc2)c1/C=C/[C@@H](O)C[C@@H](O)CC(=O)O [Rosuvastatin] (20 µM)	Clostridium sporogenes DSM 1664	0.904
Nc1nc2c(ncn2COC(CO)CO)c(=O)[nH]1 [Ganciclovir] (20 µM)	Clostridium sporogenes DSM 1664	0.925
Clc1cccc(Cl)c1NC1=NCCN1 [Clonidine hydrochloride] (20 µM)	Clostridium sporogenes DSM 1664	0.856
